experiment: soluble on expression in E. coli; label from the status in PepcDB or PDB records
testReadout: soluble on expression in E. coli

MGSDKIHHHHHHMQKNITSLSGLNWDDLKFFLEVARTRKVSSAARRLAVDYTTVSRRINSLETSLGTLLFEKSRNNGFIMTAEGQRLLGYAESIESTLHMACEQVSGSSVALSGHIRMGCTEGFGSFFITPQLSHFLDNYPSISVDILPLPHFISLSKREADIVIALERPEHGPYVCCKLCDYSLRLYATQEYLDNHAPIQRKADLSEHVFISYVDDLAFSSELLYLSNLLPNAQAQLRSTSVIAQYTAALQGRALAILPCFLAAQDPRLLPVLTEEVNITRQFWMYCREDLRKLKRITLLWDYIREVTELNKGFLLGENRAARFV : not soluble
MRKPTDTLPVNLQRRRLLCAAGALLLSPLAHAGAQREETLADDVASVMRSSVGSVNPPRLVFDNPKEGERWLSAMSARLARFVPEEEERRRLLVNIQYESSRAGLDTQIVLGLIEVESAFRQYAISGVGARGLMQVMPFWKNYIGKPAHNLFDIRTNLRYGCTILRHYRNLEKGNIVRALARFNGSLGSNKYPNAVLGAWRNRWQWR : not soluble
MALKNNTLWTGPKPEANCIIEYGKQNPDSKLTLILVKNGGIVNGYVTLMGASDYVNTLFKNKNVSINVELYFDATGHILPDSSSLKTDLELKYKQTADFSARGFMPSTTAYPFVLPNAGTHNENYIFGQCYYKASDGALFPLEVTVMLNKRLPDSRTSYVMTFLWSLNAGLAPETTQATLITSPFTFSYIREDD : soluble
MGSDKIHHHHHHMAINYGVFTISLDFEMYWGVRDKRAISDYAVNLEGIRPAIAGMLDIFTEFNVHATWATVGFLFFRNSEHLSANLPKAIPTYTDINLSPYEYIKNKKLDDRYHFAPDLIQKIISTSGQEVASHTFSHYYCLEDGQTIDQFESDLALAVDTASRLGYKLSSLVFPRNQWNSEYLSVLNKYNIKSFRGNELNWMNSASGQEGQSYFKRAARLLDSYINISGFNTHDISTCLENKPFNFPSSRFLRPYNKKLSFFDCLKLRRIKKAMTHAAKNNELFHLWWHPHNFGAETSKNLDMLREILDHYQYLNKNFGMRSLNMEELSFLEKAYD : not soluble
MSISSDWIVPDWPAPPSVRALSTTRQGGVSTGPYGLAGGLPGGLNLGRHVGDGPDAVTQNRRLLRAVLPAEPAWMEQVHGTVVADLDQPLPAPVVADAAIAASPGRVCVVMTADCLPVLLCDARGVTVGAAHAGWRGLCSGVIEQTVERMTDALRACGQEADPTWLAWLGPAIGPDCFEVGAEVRQAFIDAARPDELPATRAAFAEGAADGKFLADLYALARLRLARAGCRDVHGGGLCTMTDAERFYSYRRDRTTGRMATLIWRAA : soluble
MSLDRKGNPVVRWDNNWLGSNEPCEDRWATDLVRRDGAAGGAVGKAVNFWTRWYRGDSIPSESAPAEEDEAARGKHDLMLFSIMDGHAGDATSRLLQKSLHPTISMALAGLQRGNVPPRHNVWERWAGYLNPWYWLGTDTVWTPENVSKTIQNAFVQLDDNICQTPLKLLPTLSSPSTSSPTPRETLVALAQPAAAGACAISTLVDSENDDLYVAVTGDCRAVAGWEGEDGKWRCDVLSEDQMGDNPKEIERMRSEHPASERDTVIRNGRVQGGLQPTRAFGDAVYKWTNAQAAQIADAFRAQGERPRPGRPWNYTPPYVTARPEVTYRKLNAHTGEKLRFIVLATDGLWDRITSEESTLLLASYLSHPSHAPLPKSALPRREGHHHHHH : soluble

Would you mind telling me what soluble on expression in E. coli value was observed for SNAGLIDESEQRLVDNIFEFEEKKIREIMVPRTDMVCIYESDSEEKILAILKEEGVTRYPVCRKNKDDILGFVHIRDLYNQKINENKIELEEILRDIIYISENLTIDKALERIRKEKLQLAIVVDEYGGTSGVVTIEDILEEIVGEIQ ? soluble

Same again, this time with NIDGYNELTVGELTGPTTIETFPTPDLPGGLAGGVSWGPDAERFAVSVTGRTVNTNVFVVETETGESEQWTAASTAGIPQETLIEPEVVRFDSFDGREIPALFSPPDGAADGAGADGDTPVIVDIHGGPESQRRPSFSGLTQYFLSRGYAVFEPNVRGSTGYGKAYTHLDDVEKRMDSVKDLRAGVDWLHNHPAVDPDRIVAMGGSYGGFMVLAALTEYPDLWAAGVDVVGIANFVTFLENTGDWRRELREAEYGSLDTDREFLESISPINNVDRINAPLFVLHGANDPRVPVGEAEQIAEQAAEQGVPVEKLVFDDEGHGISKRENRIEAYTAVVEFLDDHV not soluble

Same again, this time with MTDKSKTEKLISSDDKQSVIDGILDMVFNSKAYEVPWISEKLMELSKNKDLDIAGLSLTCFGHLARLHSNIGDYDKVIPLLHSKQDDPELQGRAEDALEDISLFLSENH not soluble

Same again, this time with MKKKTTLSEEDQALFRQLMAGTRKIKQDTIVHRPQRKKISEVPVKRLIQEQADASHYFSDEFQPLLNTEGPVKYVRPDVSHFEAKKLRRGDYSPELFLDLHGLTQLQAKQELGALIAACRREHVFCACVMHGHGKHILKQQTPLWLAQHPHVMAFHQAPKEYGGDAALLVLIEVEEWLPPELP not soluble

Same again, this time with MKGLYPESVISRFDFAVTEDNKIKMLEFNSDTPTFIVECFQMNGKVCGNLGYDDPNSDQERLLSSGVTKAVMEATKGLDNPNVVFTAHHEHIEDWNTTMYLSQLCHVENKVVPMSELRITKDALVDKDGAKIDVLYRQTYPIEDLIEDQDPETGDLVGVELLQLVKAGKLFIINPLSAFLLQPKSIQCLIWGLAEEEAFYTNEEQQWIKEYMLPTYLEPDLFLGKGSFVQKPSFGREGDTITIRDKDENIMLQNAHQTYKASLPIFQKYIELPVVSLETEKGIEKLSYVFGSFLIAGKASSIGIRAGEKITGNESYYLPVGIKRRGKND not soluble

The reported numbers originate from the DeepSol protein solubility set.
